Experiment: Comments (NB not yet translated). [column 'COMMENTAIRES' in source]
Conditions: human
property-name: Hepatotoxicity (comment)

compound	val
CC1=C(/C=C/C(C)=C/C=C/C(C)=C/C(=O)O)C(C)(C)CCC1	CHOLANGITE
CCN(CC)CCCC(C)Nc1c2ccc(Cl)cc2nc2ccc(OC)cc12 (stereo not drawn)	CHOLANGITE
CC(=O)c1ccc2c(c1)N(CCCN(C)C)c1ccccc1S2	CHOLESTASE_PROLONGEE
CCCN(CCC)C(=O)Cc1c(-c2ccc(Cl)cc2)nc2ccc(Cl)cn12	AC_ANTI-N
CCOC(=O)C1=C(C)NC(C)=C(C(=O)OC)C1c1cccc([N+](=O)[O-])c1 (stereo not drawn)	AC_ANTI-N

Moving on to another compound below.
[in] So what does the record say about Hepatotoxicity (comment) for `CCC[C@@H]1C[C@@H](C(=O)N[C@@H]([C@H]2O[C@H](SC)[C@H](O)[C@@H](O)[C@H]2O)[C@H](C)Cl)N(C)C1` ?
[out] #CBP
